test system: 786-0 renal; test: NCI tumour cell line growth inhibition, 48 h
Parameter: TGI. Scope: all listed entries.

compound: COc1ccc(N2C(=O)C3c4[nH]c5ccc(C)cc5c4C4CCC(C(C)C)CC4C3C2=O)cc1 (stereo not given)
assayed.target: 786-0 renal
TGI: > 100 µM
--
compound: C#CC(C)(C)Oc1cc(OC)c2c(=O)c3ccccc3n(C)c2c1
assayed.target: 786-0 renal
TGI: > 100 µM
--
compound: O=C1CSC2(CC(/C=C/C=C/c3ccccc3)=NN2c2cccc(S(=O)(=O)O)c2)N1c1nc2ccccc2s1 (stereo not given)
assayed.target: 786-0 renal
TGI: > 100 µM
--
compound: CN(C)c1ccc(C(=NNC(=O)c2cc3ccccc3[nH]2)c2ccc(N(C)C)cc2)cc1
assayed.target: 786-0 renal
TGI: 19.8 µM
--
compound: C/C(=C(/c1ccc(O)cc1)c1ccc(OCCN2CCCC2)cc1)c1ccccc1
assayed.target: 786-0 renal
TGI: 4.09 µM
--
compound: O=[N+]([O-])c1ccc2nc3ccc([N+](=O)[O-])cn3c2c1
assayed.target: 786-0 renal
TGI: > 100 µM
--
compound: COc1cccc(-c2nn(-c3ccccc3)cc2-c2ccnc(NCCNC(=O)Nc3ccc(Cl)c(Cl)c3)c2)c1
assayed.target: 786-0 renal
TGI: 3.28 µM
--
compound: CC1=NN(c2ccc(C)cc2)C2(C1)SCC(=O)N2c1nc2ccccc2s1 (stereo not given)
assayed.target: 786-0 renal
TGI: 71 µM
--
compound: O=C1CCC2(CCC(=O)NC2=O)C(=O)N1
assayed.target: 786-0 renal
TGI: > 100 µM
--
compound: COc1cn2c(cc1=O)COc1ccc(-c3ccccc3)cc1-2
assayed.target: 786-0 renal
TGI: > 100 µM

---

tested on: UACC-257 melanoma; experiment: NCI tumour cell line growth inhibition, 48 h; in the data active = GI50 below about 0.43 µM; inactive = the rest
Outcome codes: active, inactive

compound: CCOC(=O)c1[nH]c2c(c1C)-c1[nH]c(=O)c(S(=O)(=O)c3ccccc3)cc1SC2
label: inactive
--
compound: COc1ccccc1C(=O)c1cnc(NC2CCN(S(C)(=O)=O)CC2)nc1N
label: inactive
--
compound: CC[C@]12C=CCN3CC[C@]4(C(=C(C(=O)OC)C1)Nc1cc(O)ccc14)[C@@H]32
label: inactive
--
compound: N#CC1c2ccccc2-c2ccccc2N1C(=O)c1ccccc1 (stereo not given)
label: inactive
--
compound: CC[C@@]1(OC(=O)CN)C(=O)OCc2c1cc1n(c2=O)Cc2cc3cc(N)ccc3nc2-1
label: active

---

system: NCI/ADR-RES ovarian; test: NCI tumour cell line growth inhibition, 48 h

molecule: CCOC(=O)/C=C1\Nc2ccccc2C12CCc1c([nH]c3ccccc13)C2C(=O)OCC (centres undefined)
TGI: > 100 µM

molecule: COc1cc2c3c(n(CCCNCCO)c(=O)c2cc1OC)-c1cc2c(cc1C3=O)OCO2
TGI: > 100 µM

molecule: CC1(C)CC(=O)C(/C=N/c2nc(-c3ccc(Br)cc3)cs2)=C(O)C1
TGI: > 100 µM

molecule: C/C(=N\N=C(N)N)c1c(C(=O)OCCCCCCOC(=O)c2nc3sccn3c2/C(C)=N/N=C(N)N)nc2sccn12
TGI: > 100 µM

molecule: Cc1nn(-c2ccccc2)c2c1C1C(=C(c3ccc(Cl)cc3)N2)C(=O)Nc2ccccc21 (centres undefined)
TGI: > 100 µM

molecule: C=C1C(=O)O[C@H]2C1[C@H](OC(=O)/C(C)=C\COC(C)=O)C[C@]1(CO1)[C@@H]1[C@H](O)[C@H]3O[C@@]3(C)[C@@H]12 (some centres undefined)
TGI: 54.7 µM

molecule: O=c1oc(-c2ccc(O)c(O)c2)cc2cc(O)cc(O)c12
TGI: > 100 µM

molecule: CC1(C)N=C(N)N=C(N)N1c1ccc(OCC(=O)Nc2cccc(S(=O)(=O)F)c2)c(Cl)c1
TGI: > 100 µM

molecule: Oc1ccc(-c2c3c(nc4c2CCc2ccc(Br)cc2-4)-c2cc(Br)ccc2CC3)cc1
TGI: 46 µM

---

system: NCI/ADR-RES ovarian; test: NCI tumour cell line growth inhibition, 48 h; in the data active = GI50 below about 0.43 µM; inactive = the rest
Possible outcomes: active, inactive

compound: CCOC(=O)c1[nH]c2c(c1C)-c1[nH]c(=O)c(S(=O)(=O)c3ccccc3)cc1SC2
label: inactive
--
compound: CC(C)(C)n1cc(-c2ccnc(NCCNS(=O)(=O)c3ccc(Br)cc3)c2)c(-c2cccc(O)c2)n1
label: inactive
--
compound: c1ccc2c(c1)nc(NCCN1CCNCC1)c1c3ccccc3[nH]c21
label: inactive
--
compound: CC[C@@]1(OC(=O)CN)C(=O)OCc2c1cc1n(c2=O)Cc2cc3cc(N)ccc3nc2-1
label: active
--
compound: COc1ccccc1Cn1cc2c(c1)-c1oncc1CC2
label: inactive
--
compound: C[C@@H](NC(=O)Cc1cc(F)cc(F)c1)C(=O)N[C@@]1(C)N=C(c2ccccc2)c2ccccc2N(C)C1=O
label: inactive
--
compound: CC1Cc2c(N(C)C)ncnc2N(C)c2ccc(Cl)cc21 (centres undefined)
label: inactive
--
compound: O=C(N[C@@H]1CCCc2ccccc21)[C@H](CCC(=O)N1CCN(C2CCCCC2)CC1)N1C(=O)[C@@H](N2C(=O)OC[C@@H]2c2ccccc2)[C@H]1/C=C/c1ccccc1
label: inactive
--
compound: Cc1ccc(C2=Nc3c(N)ncnc3NC(c3cccc(Nc4ccnc5cc(C(F)(F)F)ccc45)c3)C2)cc1 (centres undefined)
label: inactive

---

system: CCRF-CEM leukemia; assay: NCI tumour cell line growth inhibition, 48 h
assay.metric: TGI

compound: COc1ccccc1C(=O)c1cnc(NC2CCN(S(C)(=O)=O)CC2)nc1N
assay.metric: TGI
experimental.value: > 24.1 µM
--
compound: CCN(CC)CCOc1ccc(/C=C2\C[C@H]3[C@@H]4CC=C5C[C@@H](OC(C)=O)CC[C@]5(C)[C@H]4CC[C@]3(C)[C@H]2OC(C)=O)cc1OC
assay.metric: TGI
experimental.value: 6.77 µM
--
compound: C=C[C@]1(C)CC[C@]2(C)C(CC[C@@]3(C)C2C[C@H](O)[C@H](O)[C@@]3(C)O)C1 (some centres undefined)
assay.metric: TGI
experimental.value: > 100 µM
--
compound: COc1cc(C2C(Cl)C(=O)N2c2ccc(Br)cc2)cc(I)c1O (centres undefined)
assay.metric: TGI
experimental.value: > 100 µM

---

test system: TK-10 renal; experiment: NCI tumour cell line growth inhibition, 48 h

compound: Cc1ccc(C2=Nc3c(N)ncnc3NC(c3cccc(Nc4ccnc5cc(C(F)(F)F)ccc45)c3)C2)cc1 (stereo unspecified)
TGI: 80.7 µM
//
compound: C/C(=N\N(C)C)C(CN(C)C)C(c1ccccc1)c1c(O)c2ccccc2oc1=O (stereo unspecified)
TGI: > 100 µM
//
compound: Cc1cs/c(=N\C(P(=O)(O)O)P(=O)(O)O)n1C
TGI: > 100 µM
//
compound: O=C1c2cc([N+](=O)[O-])ccc2NC2C(O)c3ccccc3N12 (stereo unspecified)
TGI: 58.1 µM
//
compound: C=C[C@]1(C)CC[C@]2(C)C(CC[C@@]3(C)C2C[C@H](O)[C@H](O)[C@@]3(C)O)C1 (stereo partly specified)
TGI: > 100 µM
//
compound: NC(Cc1nn[nH]n1)C(=O)O (stereo unspecified)
TGI: > 100 µM
//
compound: O=C(O)c1cc(Cl)cc(NC(=O)C(Cl)Cl)c1Cl
TGI: > 100 µM
//
compound: Oc1ccc2ccccc2c1-c1nnc(CCCCCCCCc2nnc(-c3c(O)ccc4ccccc34)o2)o1
TGI: > 100 µM
//
compound: Cc1nc2c(n1Cc1ccc(Cl)cc1)C(=O)c1ccccc1C2=O
TGI: > 75 µM
//
compound: CN(C)c1ccc(-c2nc(-c3cc4c(ccc5ccccc54)oc3=O)cs2)cc1
TGI: > 100 µM
//
compound: O=[N+]([O-])c1ccc2nc3ccc([N+](=O)[O-])cn3c2c1
TGI: > 100 µM
//
compound: COc1cc(C(c2cc3c(cc2O)OCO3)N2CCCC2)cc(OC)c1OC (stereo unspecified)
TGI: 37.5 µM
//
compound: COc1ccc([Se]c2ccc(OC)cc2OC)c(OC)c1
TGI: > 100 µM
//
compound: Cc1ccc(S(=O)(=O)Nn2c(-c3ccccc3)c(C#N)c(-c3ccc([N+](=O)[O-])cc3)c(C#N)c2=O)cc1
TGI: > 100 µM
//
compound: C/C(=C(/c1ccc(O)cc1)c1ccc(OCCN2CCCC2)cc1)c1ccccc1
TGI: 16.4 µM
//
compound: c1ccc2c(c1)CCCc1cc3ccccc3nc1-2
TGI: > 100 µM
//
compound: O=C1c2cc3c(cc2CC12Cc1cc4c(cc1C2)CCC4)CCC3
TGI: > 100 µM
//
compound: CNc1ccc2nc(-c3ccc(OC(=O)N(C)C)cc3)cn2c1
TGI: 34.3 µM
//
compound: O=C1c2ccccc2-c2ccc(NC(=O)C3CCCCC3C(=O)O)cc21 (stereo unspecified)
TGI: > 100 µM
//
compound: COc1ccccc1C(=O)c1cnc(NC2CCN(S(C)(=O)=O)CC2)nc1N
TGI: > 25 µM
//
compound: COc1cc2c3c(n(CCCNCCO)c(=O)c2cc1OC)-c1cc2c(cc1C3=O)OCO2
TGI: 28.5 µM
//
compound: Cc1ccc(-c2cc(-c3ccc(Cl)cc3)nc(/N=C3\C(=O)N(CN4CCCCC4)c4ccc(Cl)cc43)n2)cc1
TGI: 71.1 µM
//
compound: CSc1c(C(C)=O)c(O)n(-c2ccc(Cl)cc2)c(=O)c1C#N
TGI: > 100 µM
//
compound: O=C(CCCCCCCCCCc1ccccc1)c1c(O)cccc1O
TGI: > 100 µM
//
compound: CC(CS(=O)(=O)Cc1ccccc1)C(N)=O (stereo unspecified)
TGI: > 100 µM
//
compound: Cc1[nH]c(=O)nc(N/N=C/c2ccc(Cl)c(Cl)c2)c1C(=O)Nc1ccc(Cl)c(Cl)c1
TGI: 28 µM
//
compound: COc1cc[nH]c1/C=C1\C(=O)Nc2ccc(F)c(C#CC3(O)CCOCC3)c21
TGI: 2.92 µM
//
compound: CCOC(=O)CCC1(C(=O)OC)CCCC1=O (stereo unspecified)
TGI: > 100 µM
//
compound: CCCCn1cc(C(=O)O)c(=O)c2c3sccc3ccc21
TGI: > 100 µM
//
compound: C/C(=N\N=C(N)N)c1c(C(=O)OCCCCCCOC(=O)c2nc3sccn3c2/C(C)=N/N=C(N)N)nc2sccn12
TGI: 55.1 µM
//
compound: COc1cc(C2C3=C(COC3=O)N(CCO)c3cc4c(cc32)CCC4)cc(OC)c1O (stereo unspecified)
TGI: > 32.5 µM
//
compound: COc1ccc(Cn2nc(OCc3ccccn3)c3cc([N+](=O)[O-])ccc32)cc1
TGI: > 100 µM
//
compound: COc1ccc(C2=CC(c3cc(OC)c(OC)c(OC)c3)n3ncnc3N2)cc1 (stereo unspecified)
TGI: 31.7 µM
//
compound: C=CCc1c(O)c2ccccc2[nH]c1=O
TGI: > 100 µM
//
compound: Clc1ccc2c(Cl)ncnc2c1
TGI: > 100 µM
//
compound: CC(C)OP(=O)(OC(C)C)C(N(C)C)P(=O)(OC(C)C)OC(C)C.[Cl][Sn]([Cl])([Cl])[c]1ccccc1
TGI: > 100 µM
//
compound: Cc1ccc(S(=O)(=O)C(C#N)c2nc3ccccc3nc2-n2cccn2)cc1 (stereo unspecified)
TGI: > 100 µM
//
compound: Cc1cc(NS(=O)(=O)c2ccc(Nc3c4ccccc4nc4c(C(=O)NCCN(C)C)ccc(Cl)c34)cc2)no1
TGI: 27.1 µM
//
compound: COc1ccc(/C=C\c2cc(OC)c(OC)c(OC)c2)cc1OP(=O)(O)O
TGI: > 100 µM
//
compound: CCOC(=O)/C=C1\Nc2ccccc2C12CCc1c([nH]c3ccccc13)C2C(=O)OCC (stereo unspecified)
TGI: > 100 µM
//
compound: O=C(CCCCCCCCC(=O)OCC1OC(n2cnc3c(=O)[nH]cnc32)C(O)C1O)OCC1OC(n2cnc3c(=O)[nH]cnc32)C(O)C1O (stereo unspecified)
TGI: > 100 µM
